All values here come from patent US20230061432A1.

- Tested on: HeLa cells
- Procedure summary: sulforhodamine B (SRB) antiproliferative assay
- Format: cell-based, human
- Details: Homo sapiens, HeLa; Table 5; read-out: GI50 in HeLa
Measured parameter: GI50 (nM)

* CC(=O)O[C@H]1[C@H]2[C@@H]([C@@H](O)[C@H](NC(=O)CCCN=[N+]=[N-])[C@H]3C[C@@H]4O[C@@H]4[C@H](OC(C)=O)[C@]23C)[C@@H]2[C@@H](O)[C@@H]3[C@H]([C@H](C)[C@H]4O[C@]45OC(=O)[C@@](C)(O)[C@]35C)[C@@]2(C)[C@H]1OC(C)=O [152D] | 120
* CC(=O)O[C@H]1[C@H]2[C@@H]([C@@H](O)[C@@H](NC(=O)CCNC(=O)c3ccc4c(c3)C(=O)OC43c4ccc(OC(=O)C(C)(C)C)cc4Oc4cc(OC(=O)C(C)(C)C)ccc43)[C@H]3C[C@@H]4O[C@@H]4[C@H](OC(C)=O)[C@]23C)[C@@H]2[C@@H](O)[C@@H]3[C@H]([C@H](C)[C@H]4O[C@]45OC(=O)[C@@](C)(O)[C@]35C)[C@@]2(C)[C@H]1OC(C)=O [163D] | 2000

---

- Test system: HeLa cells
- Procedure summary: sulforhodamine B (SRB) antiproliferative assay
- Type: cell-based, human
- Details: Homo sapiens, HeLa; Table 5; read-out: GI50 in HeLa
Measured parameter: GI50 (µM)

• CC(=O)O[C@H]1[C@H]2[C@@H]([C@@H](O)[C@@H](NC(=O)CNC(=O)c3ccc4c(c3)C(=O)OC43c4ccc(OC(=O)C(C)(C)C)cc4Oc4cc(OC(=O)C(C)(C)C)ccc43)[C@H]3C[C@@H]4O[C@@H]4[C@H](OC(C)=O)[C@]23C)[C@@H]2[C@@H](O)[C@@H]3[C@H]([C@H](C)[C@H]4O[C@]45OC(=O)[C@@](C)(O)[C@]35C)[C@@]2(C)[C@H]1OC(C)=O [164E] = 0.74
• CC(=O)Oc1ccc2c(c1)Oc1cc(OC(C)=O)ccc1C21OC(=O)c2cc(C(=O)NCCC(=O)N[C@@H]3[C@H](O)[C@H]4[C@@H]5[C@@H](O)[C@@H]6[C@H]([C@H](C)[C@H]7O[C@]78OC(=O)[C@@](C)(O)[C@]68C)[C@@]5(C)[C@@H](OC(C)=O)[C@@H](OC(C)=O)[C@@H]4[C@]4(C)[C@@H]3C[C@@H]3O[C@@H]3[C@@H]4OC(C)=O)ccc21 [162C] = 10
• CC(=O)O[C@H]1[C@H]2[C@@H]([C@@H](O)[C@@H](NC(=O)CCCn3cc(COc4ccc5c(c4)Oc4cc(O)ccc4C54OC(=O)c5ccccc54)nn3)[C@H]3C[C@@H]4O[C@@H]4[C@H](OC(C)=O)[C@]23C)[C@@H]2[C@@H](O)[C@@H]3[C@H]([C@H](C)[C@H]4O[C@]45OC(=O)[C@@](C)(O)[C@]35C)[C@@]2(C)[C@H]1OC(C)=O (some centres unmarked) [155G] = 8.4
• CC(=O)O[C@H]1[C@H]2[C@@H]([C@@H](O)[C@@H](NC(=O)CCCCCCn3cc(COc4ccc5c(c4)Oc4cc(O)ccc4C54OC(=O)c5ccccc54)nn3)[C@H]3C[C@@H]4O[C@@H]4[C@H](OC(C)=O)[C@]23C)[C@@H]2[C@@H](O)[C@@H]3[C@H]([C@H](C)[C@H]4O[C@]45OC(=O)[C@@](C)(O)[C@]35C)[C@@]2(C)[C@H]1OC(C)=O (some centres unmarked) [158F] = 6
• CC(=O)O[C@H]1[C@H]2[C@@H]([C@@H](O)[C@@H](NC(=O)CCCn3cc(COc4cc5c(cc4F)C4(OC(=O)c6ccccc64)c4cc(F)c(O)cc4O5)nn3)[C@H]3C[C@@H]4O[C@@H]4[C@H](OC(C)=O)[C@]23C)[C@@H]2[C@@H](O)[C@@H]3[C@H]([C@H](C)[C@H]4O[C@]45OC(=O)[C@@](C)(O)[C@]35C)[C@@]2(C)[C@H]1OC(C)=O (some centres unmarked) [155F] = 3.7

---

- Test system: HeLa cells
- Procedure summary: sulforhodamine B (SRB) antiproliferative assay
- Type: cell-based, human
- Details: Homo sapiens, HeLa; Table 5; read-out: GI50 in HeLa
Recorded measurements of GI50, one per entry
Measured parameter: GI50

• CC(=O)O[C@H]1[C@H]2[C@@H]([C@@H](O)[C@@H](NC(=O)CCCn3cc(CNC(=O)c4ccc(-c5c6cc(F)c(=O)cc-6oc6cc(O)c(F)cc56)c(C(=O)O)c4)nn3)[C@H]3C[C@@H]4O[C@@H]4[C@H](OC(C)=O)[C@]23C)[C@@H]2[C@@H](O)[C@@H]3[C@H]([C@H](C)[C@H]4O[C@]45OC(=O)[C@@](C)(O)[C@]35C)[C@@]2(C)[C@H]1OC(C)=O [154B] = > 10 µM
• CC(=O)Oc1cc2c(cc1F)C1(OC(=O)c3cc(C(=O)NCCC(=O)N[C@@H]4[C@H](O)[C@H]5[C@@H]6[C@@H](O)[C@@H]7[C@H]([C@H](C)[C@H]8O[C@]89OC(=O)[C@@](C)(O)[C@]79C)[C@@]6(C)[C@@H](OC(C)=O)[C@@H](OC(C)=O)[C@@H]5[C@]5(C)[C@@H]4C[C@@H]4O[C@@H]4[C@@H]5OC(C)=O)ccc31)c1cc(F)c(OC(C)=O)cc1O2 [163E] = > 10 µM
• CC(=O)Oc1cc2c(cc1F)C1(OC(=O)c3cc(C(=O)NCc4cn(CCCC(=O)N[C@@H]5[C@H](O)[C@H]6[C@@H]7[C@@H](O)[C@@H]8[C@H]([C@H](C)[C@H]9O[C@]9%10OC(=O)[C@@](C)(O)[C@]8%10C)[C@@]7(C)[C@@H](OC(C)=O)[C@@H](OC(C)=O)[C@@H]6[C@]6(C)[C@@H]5C[C@@H]5O[C@@H]5[C@@H]6OC(C)=O)nn4)ccc31)c1cc(F)c(OC(C)=O)cc1O2 [154J] = > 10 µM
